The measured values listed here are drawn from paper PMC5607274.

Molecular target: human recombinant Yes [a.a. 2–543 (end)] (Homo sapiens, UniProt P07947)
Construct: human recombinant Yes [a.a; 2–543 (end)]; purchased BPS Bioscience 40488
Sequence (P07947 2-543): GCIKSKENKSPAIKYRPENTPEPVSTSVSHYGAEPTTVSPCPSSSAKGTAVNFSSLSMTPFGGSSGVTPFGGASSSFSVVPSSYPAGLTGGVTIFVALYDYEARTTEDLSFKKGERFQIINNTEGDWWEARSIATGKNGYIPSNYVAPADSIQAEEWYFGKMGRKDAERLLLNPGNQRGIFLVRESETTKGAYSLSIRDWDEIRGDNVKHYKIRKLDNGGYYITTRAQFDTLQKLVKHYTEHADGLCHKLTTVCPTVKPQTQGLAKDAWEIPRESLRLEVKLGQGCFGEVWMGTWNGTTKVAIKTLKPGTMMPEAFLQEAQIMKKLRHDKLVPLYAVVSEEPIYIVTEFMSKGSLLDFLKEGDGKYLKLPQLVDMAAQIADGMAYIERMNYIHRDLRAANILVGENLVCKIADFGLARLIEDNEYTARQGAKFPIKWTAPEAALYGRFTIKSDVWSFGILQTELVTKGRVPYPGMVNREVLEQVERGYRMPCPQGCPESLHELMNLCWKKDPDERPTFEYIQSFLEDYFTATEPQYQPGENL
Experiment: ADP-Glo kinase assay, inhibition rates of Yes phosphorylation activity (first and second screening)
Assay type: biochemical
Conditions: first screening; mean of n = 4 wells; 10 μmol L−1 compound
Procedure: All inhibitory assays of the phosphorylation activity of Yes were performed in accordance with the Promega Technical Manual for the ADP-Glo™ Kinase Assay (Fitchburg, WI, USA. Catalog number: V9102). The human recombinant Yes [a.a. […] The screening was conducted in three steps consisting of the first screening, the second screening, and the IC50 determination, as can be illustrated in Fig. 1b. First, we determined the inhibition rates of the 1,991 compounds. […]
EXPERIMENTAL ENDPOINT: First screening IR (inhibition rate) (%)

Use these answered entries as a reference point.
CNS(=O)(=O)c1ccc2c(c1)nc(-c1cc(C#N)n(C)c1)n2C [Compound Z1837787694]: -2
CC(C)n1ncc2cc(/C=C3/CN(C)Cc4c3nc3ccccc3c4C(=O)O)c(Cl)nc21 [Compound Z336032562]: 54
COC(=O)c1ccc(CNC(=O)Cn2c(=O)c3c(ncn3CCC(C)C)n(Cc3ccccc3)c2=O)cc1 [Compound Z24149625]: 8

A = CN(C)C(=O)CN1CCN(CC(=O)Nc2cc(-c3ccc4c(c3)CCC4)nn2-c2ccccc2)CC1 [Compound Z106627256]
B = O=C(CS(=O)(=O)CCCc1ccccc1)Nc1ccc(-n2ccnc2)nc1 [Compound Z407006622]
Enquiry: I need your help: which of the pair A , B has higher First screening IR (inhibition rate)? Mark your selection by writing its label.
Return: A
(A: -3%, B: -20%)

P = O=C(c1ccoc1)N1CCN(c2ncnc3cc(-c4ccc(F)cc4)sc23)CC1 [Compound Z373317194]
Q = Cc1nn(CCc2nn[nH]n2)c2nc(-c3ccccc3)cc(C(F)(F)F)c12 [Compound Z55874741]
R = CC1CCC(C(C)C)C(OC(=O)CSc2ncnc3ccccc23)C1 (stereo not drawn) [Compound Z19316042]
S = COc1ccc(Cl)cc1CN(C)C(=O)c1cc(C(C)C)nc2c1cnn2C(C)C [Compound Z110143980]
Enquiry: Output the entries ranked by First screening IR (inhibition rate) from maximum down to minimum. Quick reminder: the answer is the labels in the order asked.
Return: P, Q, R, S

a = O=S1(=O)CCC(SSC2CCS(=O)(=O)C2)C1 (stereo not drawn) [Compound Z57056477]
b = Cl.Nc1ccc(-c2cc(-c3ccccc3)c3cc(Cl)ccc3n2)cc1 [Compound Z56913268]
Enquiry: Hello, I am sorting some records. Could you say if a or b has the smaller First screening IR (inhibition rate) value? Kindly give the label for the entry you pick.
Return: b

---

Biological target: human recombinant Yes [a.a. 2–543 (end)] (Homo sapiens, UniProt P07947)
Construct: human recombinant Yes [a.a; 2–543 (end)]; purchased BPS Bioscience 40488
Assay: ADP-Glo kinase assay, inhibition rates of Yes phosphorylation activity (first and second screening)
Type: biochemical
Settings: first screening; mean of n = 4 wells; 10 μmol L−1 compound
EXPERIMENTAL ENDPOINT: First screening IR (inhibition rate) (%)

Here are 3 compounds together with their reported answers.
N#Cc1cccc(NC(=O)NCCNC(=O)c2c(F)cccc2F)c1 [Compound Z1189154512]: -6
Cc1sc2ncnc(N/N=C/c3cccc(O)c3)c2c1C [Compound Z49890739]: 14
Cc1cccc(C)c1OCC(O)CNc1ncnc2sc(C)c(C)c12 (centres unmarked) [Compound Z838103434]: 13

P = CS(=O)(=O)C1CSCCN1S(=O)(=O)c1ccc(Br)cc1Cl (centres unmarked) [Compound Z1274438175]
Q = Cc1c(C(=O)NCCOc2ccccc2F)[nH]c2c1C(=O)CCC2 [Compound Z51995316]
Enquiry: Pick one, P or Q : lowest reported First screening IR (inhibition rate). To answer, give the label that identifies your chosen option.
Return: P
(P: -18%, Q: 36%)

I = Cc1ccc(S(=O)(=O)C2CS(=O)(=O)CC2O)c(C)c1 (centres unmarked) [Compound Z1549639934]
II = CCOC(=O)c1[nH]c(C)c(C(=O)CSc2n[nH]c(-c3ccccc3)n2)c1C [Compound Z225443610]
Enquiry: Field: lower recorded First screening IR (inhibition rate) (choose I or II ) Please indicate the selected item by its label.
Return: II
